# ASSAY EXPLANATION: logP (acidic) / lgP (HCOOH), phys. data
# Assay type: physicochemical
# RUN PARAMETERS: Table I-1; acidic; read-out: Phys. data = logP (acidic)
logP listing for selected compounds.
PARAMETER: logP

INSERT INTO measurements (compound, parameter, val) VALUES
  ('CC(NC(=S)N1CCOC1=N[C@H]1CCc2ccccc21)c1cccc(Cl)c1 (some centres unmarked) [1-35]', 'logP', 5.31),
  ('Cc1ccc(CNC(=S)N2CCOC2=N[C@H]2CCc3ccccc32)cc1 [1-23]', 'logP', 4.91),
  ('CC(NC(=S)N1CCOC1=N[C@H]1CCc2ccccc21)c1ccc(Cl)cc1 (some centres unmarked) [1-34]', 'logP', 5.64),
  ('S=C(NCc1ccccc1)N1CCOC1=NC1CCc2ccccc21 (centres unmarked) [1-1]', 'logP', 4.46),
  ('S=C(NCc1ncccn1)N1CCOC1=N[C@H]1CCc2ccccc21 [1-71]', 'logP', 2.92);

The measured values listed here are drawn from patent EP1982595A1.
